# MEASURED ON: Full-length (FL)-PRMT5-MEP50 enzyme complex (Homo sapiens, UniProt O14744)
# Construct: Full-length (FL)-PRMT5-MEP50 enzyme complex (recombinant proteins from baculovirus-transfected Sf21 cells: FL-PRMT5; MW=73837 kDa and FL-MEP50; MW=38614); made in house; host or cells: baculovirus-transfected Sf21 insect cells
# Sequence (O14744 whole entry): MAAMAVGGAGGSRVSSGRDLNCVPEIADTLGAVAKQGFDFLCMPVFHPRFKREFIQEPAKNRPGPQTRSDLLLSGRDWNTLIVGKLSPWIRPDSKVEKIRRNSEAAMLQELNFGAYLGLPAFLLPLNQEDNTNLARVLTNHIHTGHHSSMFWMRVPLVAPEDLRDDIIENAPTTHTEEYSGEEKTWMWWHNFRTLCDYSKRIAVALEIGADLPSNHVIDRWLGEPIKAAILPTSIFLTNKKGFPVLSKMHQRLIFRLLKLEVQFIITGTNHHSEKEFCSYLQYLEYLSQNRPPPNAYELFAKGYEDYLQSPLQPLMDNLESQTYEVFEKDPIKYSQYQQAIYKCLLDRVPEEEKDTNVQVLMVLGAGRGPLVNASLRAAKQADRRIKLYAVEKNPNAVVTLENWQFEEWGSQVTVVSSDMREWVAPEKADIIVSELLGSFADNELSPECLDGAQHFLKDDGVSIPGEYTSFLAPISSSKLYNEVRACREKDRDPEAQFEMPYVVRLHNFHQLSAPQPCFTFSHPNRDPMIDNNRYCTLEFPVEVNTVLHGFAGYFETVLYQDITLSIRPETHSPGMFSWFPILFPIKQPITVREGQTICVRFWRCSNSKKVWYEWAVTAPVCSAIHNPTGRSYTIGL
# Sequence (Q9BQA1 whole entry partner): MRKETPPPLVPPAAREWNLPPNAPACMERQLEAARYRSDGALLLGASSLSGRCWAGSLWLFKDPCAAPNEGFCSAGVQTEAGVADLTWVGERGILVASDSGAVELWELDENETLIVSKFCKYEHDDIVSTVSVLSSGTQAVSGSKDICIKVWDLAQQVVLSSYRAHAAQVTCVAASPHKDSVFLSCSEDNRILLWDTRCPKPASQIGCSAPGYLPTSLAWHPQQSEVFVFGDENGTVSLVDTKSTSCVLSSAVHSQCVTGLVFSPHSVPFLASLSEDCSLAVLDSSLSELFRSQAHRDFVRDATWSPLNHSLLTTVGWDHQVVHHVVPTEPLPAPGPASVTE
# PROTOCOL DETAILS: PRMT5-MEP50 Enzyme Methylation Assay
# Format: biochemical
# SETUP CONDITIONS: one EC50: 4 parameters single site sigmoidal model; EC50 1: first value of 7 parameters biphasic model; 1.0 nM PRMT5-MEP50, 75 nM biotinylated peptide, 15 μM SAM; read-out: Enzyme Methylation Assay (EC50 or EC50 1)
Below, each entry is listed alongside its reported pEC50.
Remember, pEC50 is on a log scale: it is -log10 of the molar concentration.

// solved cases for pEC50 follow
Nc1nc2cc(C[C@@H]3CC[C@@]4(O)[C@@H]3O[C@@H](n3ccc5c(N)nc(F)nc53)[C@@H]4O)ccc2cc1F [Example 45]: 9.52
C[C@]1(COc2ccc3cccnc3c2)O[C@@H](n2ccc3c(N)ncnc32)[C@H](O)[C@@H]1O [Example 98]: 8.47
Nc1nc2cc(C[C@@H]3CC[C@@]4(O)[C@@H]3O[C@@H](n3cc(F)c5c(N)ncnc53)[C@@H]4O)cc(F)c2cc1F [Example 24]: 9.40
Nc1ncnc2c1ccn2[C@@H]1O[C@@H]2[C@@H](Oc3ccc4ccc(NCC(F)(F)F)nc4c3)CC[C@]2(O)[C@H]1O [Example 57]: 9.15
Nc1nc2cc(O[C@H]3CC[C@@]4(O)[C@@H]3O[C@@H](n3cc(F)c5c(N)ncnc53)[C@@H]4O)ccc2cc1F [Example 73]: 9.40

Given Nc1nc2cc(C[C@@H]3CC[C@@]4(O)[C@@H]3O[C@@H](n3ccc5c(N)ncnc53)[C@@H]4O)ccc2cc1C(F)F [Example 137] , state its recorded pEC50.
9.30

Given CC(C)c1ncnc2c1ccn2[C@@H]1O[C@@H]2[C@H](Cc3ccc4cc(Br)c(N)nc4c3)CC[C@]2(O)[C@H]1O [Example 83] , state its recorded pEC50.
8.92

Data credit: patent US20230062119A1
